Data origin, for the record: patent US4868195A

- subjectOfTest: human leukocyte 5-lipoxygenase (Homo sapiens)
- Construct: endogenous in cells; host or cells: intact leukocytes isolated from human blood
- Sequence (P09917 whole entry): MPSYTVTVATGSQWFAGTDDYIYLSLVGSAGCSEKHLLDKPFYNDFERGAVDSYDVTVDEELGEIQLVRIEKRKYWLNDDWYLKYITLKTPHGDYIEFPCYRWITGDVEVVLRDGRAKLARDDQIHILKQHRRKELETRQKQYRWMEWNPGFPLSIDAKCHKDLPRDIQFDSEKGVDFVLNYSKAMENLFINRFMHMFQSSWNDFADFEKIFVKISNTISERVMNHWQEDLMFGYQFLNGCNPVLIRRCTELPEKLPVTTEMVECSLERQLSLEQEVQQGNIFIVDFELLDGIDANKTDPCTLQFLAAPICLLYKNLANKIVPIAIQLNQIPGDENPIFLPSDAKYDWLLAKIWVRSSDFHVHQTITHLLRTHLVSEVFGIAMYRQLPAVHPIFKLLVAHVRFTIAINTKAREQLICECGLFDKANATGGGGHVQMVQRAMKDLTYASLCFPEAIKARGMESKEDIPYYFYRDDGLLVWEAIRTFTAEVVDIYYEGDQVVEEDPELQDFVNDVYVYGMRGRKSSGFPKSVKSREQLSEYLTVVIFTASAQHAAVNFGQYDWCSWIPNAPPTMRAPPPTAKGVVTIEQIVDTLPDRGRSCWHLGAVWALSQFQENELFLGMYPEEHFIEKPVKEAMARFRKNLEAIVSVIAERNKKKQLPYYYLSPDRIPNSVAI
- procedureText: 5-lipoxygenase inhibition in human leukocytes, 5-HETE formation (5LOA; methods 5LOA1 and 5LOA2)
- Type: cell-based
- measurementParameters: 5-HETE formation, human leukocytes; read-out: Concentration (M) for 50.0 % Inhibition, IC (5LOA)

compound	IC50 / M
O=C(Nc1cccc(CCc2ccc(Cl)c(Cl)c2)c1)C1=C(O)c2ccccc2S(=O)(=O)C1 [Example 76]	1.1e-05
COc1ccc(CCc2ccc(NC(=O)C3=C(O)c4ccccc4S(=O)(=O)C3)cc2)cc1OC [Example 18]	1.35e-05
O=C(Nc1ccc(Cc2ccc(Cl)c(Cl)c2)cc1)C1=C(O)c2ccccc2S(=O)(=O)C1 [Example 78]	1.06e-05
O=C(Nc1ccc(C=Cc2ccc(Cl)c(Cl)c2)cc1)C1=C(O)c2ccccc2S(=O)(=O)C1 [Example 74]	9.3e-06
COc1cc(CCc2ccc(NC(=O)C3=C(O)c4ccccc4S(=O)(=O)C3)cc2)ccc1O [Example 70]	5e-06
COc1ccc(CCc2ccc(NC(=O)c3oc4c5ccccc5n(C)c4c3O)cc2)cc1OC [Example 161]	9e-06
COc1ccc(CCc2ccc(NC(=O)C3Oc4cc5ccccc5cc4C3=O)cc2)cc1OC (stereo not drawn) [Example 101]	8.5e-06
O=C(Nc1ccc(CCc2ccc(Cl)cc2)cc1)C1CS(=O)(=O)c2ccccc2C1=O (stereo not drawn) [Example 54]	5.25e-06
O=C(Nc1ccc(CCc2c(F)c(F)c(F)c(F)c2F)cc1)C1=C(O)c2ccccc2S(=O)(=O)C1 [Example 64]	1.19e-05

====

- subjectOfTest: leukotriene receptor (guinea pig lung membranes) (Cavia porcellus, UniProt Q2NNR5)
- Construct: 20 mg original tissue wet weight of guinea pig lung; tissue Kuiper Rabbit Farm, Gary, IN (animals); host or cells: guinea pig lung, crude membranes
- Sequence (Q2NNR5 whole entry): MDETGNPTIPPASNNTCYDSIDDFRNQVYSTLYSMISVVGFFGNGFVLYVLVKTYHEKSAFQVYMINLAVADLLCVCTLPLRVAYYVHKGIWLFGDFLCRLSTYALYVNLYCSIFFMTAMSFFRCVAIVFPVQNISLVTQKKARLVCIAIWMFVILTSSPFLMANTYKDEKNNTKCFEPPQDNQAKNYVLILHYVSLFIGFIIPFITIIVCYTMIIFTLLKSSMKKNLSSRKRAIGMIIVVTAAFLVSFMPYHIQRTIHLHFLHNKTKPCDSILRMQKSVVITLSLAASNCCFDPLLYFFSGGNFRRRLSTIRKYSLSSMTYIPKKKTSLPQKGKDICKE
- procedureText: Binding of ^3 H-Leukotriene D4 to Guinea Pig Lung Membranes (RBL)
- measurementParameters: 0.2 nM ^3 H-LTD4, 60 min, 25° C.; read-out: Concentration (M) for 50.0 % Inhibition, IC (RBL)

compound	IC50 [M]
O=C(Nc1ccccc1CCc1ccc(Cl)c(Cl)c1)C1=C(O)c2ccccc2S(=O)(=O)C1 [Example 8]	4.21e-06
COc1ccc(CCc2ccc(NC(=O)c3sc4ccccc4c3O)cc2)cc1OC [Example 143]	1.21e-05
COc1ccc(OC)c(CCc2ccc(NC(=O)C3=C(O)c4ccccc4S(=O)(=O)C3)cc2)c1 [Example 32]	2.35e-05
COc1cc(CCc2ccc(NC(=O)C3=C(O)c4ccccc4S(=O)(=O)C3)cc2)cc(OC)c1OC [Example 35]	4.23e-05
COc1cccc(CCc2ccc(NC(=O)C3CS(=O)(=O)c4ccccc4C3=O)cc2)c1 (centres unmarked) [Example 39]	2.48e-05
COc1cc(CCc2ccc(NC(=O)C(=O)c3sc4ccccc4c3O)cc2)ccc1O [Example 142]	6.1e-05
CCCCCCCCc1ccc(NC(=O)C2CS(=O)(=O)c3ccccc3C2=O)cc1 (centres unmarked) [Example 59]	7.29e-06
O=C(Nc1ccc(CCc2ccc(Oc3ccccc3)cc2)cc1)C1=C(O)c2ccccc2S(=O)(=O)C1 [Example 75]	5.58e-06
O=C(Nc1ccc(CCc2cccc(Cl)c2)cc1)C1=C(O)c2ccccc2S(=O)(=O)C1 [Example 68]	4.99e-06
O=C(Nc1ccc(CCc2cc(Cl)cc(Cl)c2)cc1)C1=C(O)c2ccccc2S(=O)(=O)C1 [Example 71]	7.46e-06
O=C(Nc1ccccc1CCCc1ccc(Cl)c(Cl)c1)C1=C(O)c2ccccc2S(=O)(=O)C1 [Example 80]	1.27e-05
CCCCCCc1ccc(NC(=O)C2CS(=O)(=O)c3ccccc3C2=O)cc1 (centres unmarked) [Example 58]	8.47e-06
O=C(Nc1ccc(CCc2ccc(O)cc2)cc1)C1CS(=O)(=O)c2ccccc2C1=O (centres unmarked) [Example 40]	5.6e-05
O=C(Nc1ccc(CCc2ccc3ccccc3c2)cc1)C1=C(O)c2ccccc2S(=O)(=O)C1 [Example 51]	3.84e-06
O=C(Nc1ccc(CCc2cccc(O)c2O)cc1)C1CS(=O)(=O)c2ccccc2C1=O (centres unmarked) [Example 29]	3.92e-05
O=C(Nc1ccc(CCc2ccccc2O)cc1)C1=C(O)c2ccccc2S(=O)(=O)C1 [Example 38]	6.68e-06
O=C(Nc1ccc(CCc2ccc(C(F)(F)F)cc2)cc1)C1CS(=O)(=O)c2ccccc2C1=O (centres unmarked) [Example 44]	3.02e-06
CC(=O)Nc1ccc(CCc2ccc(NC(=O)C3CS(=O)(=O)c4ccccc4C3=O)cc2)cc1 (centres unmarked) [Example 49]	0.000149
COc1cc(CCc2ccc(NC(=O)C3=C(O)c4ccccc4S(=O)(=O)C3)cc2)cc(OC)c1 [Example 34]	1.58e-05
O=C(Nc1ccc(CCc2cc(C(F)(F)F)cc(C(F)(F)F)c2)cc1)c1sc2ccccc2c1O [Example 148]	0.0001
